Would you kindly list TGI for each of these compounds?
# System: OVCAR-8 ovarian
# TEST METHOD NOTES: NCI tumour cell line growth inhibition, 48 h
Where a SMILES comes first, the peptide text is derived from it. The star is where a group is joined. Boc = CC(C)(C)OC(=O)*

Which TGI value is on record for S=c1nc2[nH]c3ccc(Br)cc3c2n[nH]1 ?
> 100 µM

Fill in the blank: the reported TGI of O=C(Cn1c(=O)c(-c2ccccc2)nc2ccccc21)c1cccnc1 is ____.
> 100 µM

Entry under review: O=C(Nc1nnc(-c2ccccc2)o1)C(SC(=S)N1CCOCC1)c1ccccc1 (configuration not stated) . Reported TGI?
> 100 µM

Look up TGI for this compound: O=C(OCCN1CCCCC1)C(c1ccccc1)C1(O)CCSCC1 (configuration not stated)
> 100 µM

// query TGI value for entry CCCC(CC)c1c(O)c(O)c(C(CC)CCC)c(C(CC)CCC)c1C(CC)CCC (configuration not stated)
> 10 µM

Entry NC(N)=N/N=C/c1c(-c2cccs2)nc2sccn12 has what TGI?
49 µM

If you can, please state the reported TGI value of O=C(NC1(C(=O)NNc2nnc(-c3ccccc3)c(-c3ccccc3)n2)C(c2ccccc2)C(c2ccccc2)=NN1c1ccccc1)c1ccccc1 (configuration not stated) .
> 100 µM

// returns reported TGI for input CC(C)[C@H]1NC(=O)[C@H]2N=C(O[C@@H]2C)[C@@H]2CCCN2C(=O)[C@H](Cc2ccccc2)NC(=O)[C@@H]2CSC(=N2)[C@@H](Cc2ccccc2)NC(=O)[C@@H]2CSC1=N2
> 100 µM

Value lookup for TGI; key = COc1ccc(/C=C2\CC3C4CC=C5C[C@@H](O)CC[C@]5(C)C4CC[C@]3(C)\C2=N\O)cc1OC (some centres not stated)
> 100 µM

Can you look up the measured TGI of Cc1cc2ccccc2n1CC(=O)N1CCCC1 for me?
> 100 µM

Endpoint output: TGI of NC(=O)C(Br)CBr (configuration not stated) . Value?
4.44 µM

Requested read-out: TGI. Entry: Nc1nc2c(c3ncccc13)C(c1ccc(Cl)c(Cl)c1)Cc1ncccc1-2 (configuration not stated)
36.5 µM

I have this compound here, Cn1c(=O)c(Oc2cccc(F)c2)cc2cnc(NC3CCOCC3)nc21 , and I need its recorded TGI.
> 25 µM

Which TGI is listed for Cc1ccc(-n2c(O)c3c(N)n[nH]c3c(C#N)c2=O)cc1 ?
> 100 µM

Any idea what TGI was measured for O=Nc1c(-c2cccc([N+](=O)[O-])c2)nc2cnccn12 ?
53.8 µM

Fill blank: measured TGI of the compound Nc1c(C(=O)c2cccc(-c3ccc[n+]([O-])c3)c2)cnn1-c1ccc(F)cc1F is ____.
> 25 µM

TGI lookup needed for CCOP(=O)(OCC)/C(=C\N1C(=O)CC(=O)NC1=S)C(=O)OC , thanks.
> 100 µM

Consider the compound shown here: Cc1ccc(C)c(COCCOCn2cc(Br)c(N)nc2=O)c1 What is its recorded TGI?
> 100 µM

Record request: TGI value, item CNc1nc(C)c(-c2nc(Nc3cccc(S(N)(=O)=O)c3)ncc2F)s1
15.9 µM

Quick one: TGI of O=c1[nH]c(-c2ccccc2)nc2ccc(Cl)cc12 ?
> 100 µM

Recorded TGI for COc1ccc(C2=CC(c3cc(OC)c(OC)c(OC)c3)NC(=O)N2)cc1OC (configuration not stated) , please?
> 100 µM

Recorded TGI of CCON=C1C(C)(C)C(C)(C)C(C)(C)C1(C)C , please.
> 100 µM

What value of TGI has been reported for the following compound? OCCN(CCO)c1cccc(N(CCO)CCO)c1
> 100 µM

Can you share its TGI? I mean this compound: COC(=O)C(Cc1c[nH]c2ccccc12)NC(=O)C(Cc1c[nH]c2ccccc12)NC(=O)C(Cc1c[nH]c2ccccc12)NC(=O)C(Cc1c[nH]c2ccccc12)NC(=O)OC(C)(C)C (configuration not stated) (Boc-WWWW-OMe; configuration not given here)
> 100 µM

# TGI lookup, item CCOCC(=O)N[C@H]1CCc2cc(OC)c(OC)c(OC)c2-c2ccc(SC)c(=O)cc21
4.64 µM

I have this compound here, COc1ccc(Nc2ccnc(NCCNc3ccnc4cc(Cl)ccc34)n2)cc1 , and I need its recorded TGI.
17.3 µM

# query: TGI of entry C=C(C)C(=O)OC1CC2(C)OC2CC(OC(C)=O)/C(C)=C/C2OC(=O)C(=C)C21 (configuration not stated)
18.7 µM

Look at this compound and give its reported TGI. CC1CCC2(NC1)OC1CC3[C@@H]4CC=C5C=CCC[C@]5(C)C4CC[C@]3(C)C1C2C (some centres not stated)
48.1 µM

Request the reported TGI associated with CN(C)CCOC(=O)c1ccc(N)cc1
> 100 µM

Quick check: TGI of C=C1C(=O)O[C@H]2[C@H]1CC/C(CNS(=O)(=O)c1ccc3ccccc3c1)=C\CC[C@@]1(C)O[C@@H]21 ?
12.6 µM

Query: TGI; subject: O=C1CCCC2=C1C(c1ccc3c(c1)OCO3)Nc1ccc3ccccc3c12 (configuration not stated)
> 100 µM

So what's the measured TGI for this one? ON(CCc1ccncc1)Cc1ccccc1
> 100 µM

Quick check: TGI of Cc1cc2c(cc1C)[n+](=O)c(C(=O)/C=C/c1ccc(Cl)cc1)c(C)n2[O-] ?
84.2 µM

Recorded TGI for CCN(CC)c1ccc(N=C2C=C(C(=O)Nc3ccc(S(C)(=O)=O)cc3)C(=O)c3ccccc32)c(C)c1 , please?
> 100 µM

TGI lookup needed for CO/C(=N\N=C\c1ccc(Cl)cc1Cl)c1ccncc1 , thanks.
> 10 µM

What does the record list as TGI for CC(NC1=NCCO1)c1cccc([N+](=O)[O-])c1 (configuration not stated) ?
> 100 µM

Record request: TGI value, item Cn1ccnc1C(c1nccn1C)C(C)(C)[N+](=O)[O-]
> 100 µM

Reference source: PubChem BioAssay (NCI)
